# ASSAY OVERVIEW: BET inhibitor-based combinations targeting novel dependencies in MECOM-rearranged (r) AML: HNT-34 cell line (AID 2202234); further: nearly all actives have a fitted effect of over 35% in size
# MEASUREMENT CONTEXT: HNT-34 AML viability, CellTiter-Glo luminescence, 48 h; series mostly up to 46 µM
# Protocol: Ecotropic viral insertion site 1 (EVI1) is located on chromosome 3q26.2 as part of the MECOM (MDS and EVI1 complex) locus. […] A collection of 2480 mechanistically annotated dugs (MIPE v5.0) was used to screen four 3q26.2 rearranged AML cell lines and three non-3q26.2 rearranged AML cell lines. […] Cell viability was determined by luminescence based, Cell Titer Glo assay (Promega). […] Luminescence readings were taken using a Viewlux (PerkinElmer) with a 2 s exposure time per plate. […]
Records with an inconclusive call do not appear. Activity calls are given as the source filed them. The call rests on the fitted dose curve; in most records, active means well fitted inhibition curve with a large enough effect; inconclusive means small, poorly fitted or top-dose-only effect; inactive means no such curve, though single readings can be large or run the other way.
Would you mind answering with one of these outcomes? Yes for active, No for inactive

Worked set:
CC(=O)OCC(=O)[C@@]1(O)[C@H](C)C[C@H]2[C@@H]3C=C(C)C4=Cc5c(cnn5-c5ccccc5)C[C@]4(C)[C@@H]3[C@@H](O)C[C@@]21C :: No
CC(=O)O[C@H]1C[C@@H]2CC[C@@H]3[C@H](CC[C@@]4(C)[C@H]3C[C@H]([N+]3(C)CCCCC3)[C@@H]4OC(C)=O)[C@@]2(C)C[C@@H]1N1CCCCC1 :: No
Nc1nc(N)c2nc(-c3cccc(O)c3)c(-c3cccc(O)c3)nc2n1 :: No

Exercise: What outcome does the record of this test show for CCN(CC)CCOc1ccc(Nc2ncc3cc(-c4c(Cl)cccc4Cl)c(=O)n(C)c3n2)cc1 ?
Solution: Yes

Exercise: What outcome does the record of this test show for NC[C@H](O)c1ccc(O)c(O)c1 ?
Solution: No

Exercise: What outcome does the record of this test show for NC12CC3CC(CC(C3)C1)C2 ?
Solution: No

Exercise: What outcome does the record of this test show for CC(C)C[C@H](NC(=O)[C@H](Cc1ccccc1)NC(=O)c1cnccn1)B(O)O ?
Solution: Yes

Exercise: What outcome does the record of this test show for c1cc(-c2cnn3cc(-c4ccc(OCCN5CCCCC5)cc4)cnc23)ccn1 ?
Solution: Yes

Exercise: What outcome does the record of this test show for COc1cc(Nc2c(C#N)cnc3cc(OCCCN4CCN(C)CC4)c(OC)cc23)c(Cl)cc1Cl ?
Solution: Yes

Exercise: What outcome does the record of this test show for O=C(/C=C/c1ccc(O)cc1)c1ccc(O)cc1O ?
Solution: Yes

----------
# ASSAY OVERVIEW: BET inhibitor-based combinations targeting novel dependencies in MECOM-rearranged (r) AML: HNT-34 cell line (AID 2202234); further: nearly all actives have a fitted effect of over 35% in size; further: potency means the concentration at half of the fitted maximal effect
# MEASUREMENT CONTEXT: HNT-34 AML viability, CellTiter-Glo luminescence, 48 h; series mostly up to 46 µM
# Protocol: Ecotropic viral insertion site 1 (EVI1) is located on chromosome 3q26.2 as part of the MECOM (MDS and EVI1 complex) locus. […] A collection of 2480 mechanistically annotated dugs (MIPE v5.0) was used to screen four 3q26.2 rearranged AML cell lines and three non-3q26.2 rearranged AML cell lines. […] Cell viability was determined by luminescence based, Cell Titer Glo assay (Promega). […] Luminescence readings were taken using a Viewlux (PerkinElmer) with a 2 s exposure time per plate. […]
Results filed as inconclusive are left out. Calls of active or inactive are those of the source. Calls follow the shape of the dose curve; as a rule, active = well fitted inhibition curve with a large enough effect; inconclusive = small, poorly fitted or top-dose-only effect; inactive = no such curve, though single readings can be large or run the other way.
READOUT TYPE: Potency

Please review the entries below; each comes with its answer.
Cc1cc(-c2cc(OC(=O)c3ccccc3)ccc2Cl)cc2nnc(Nc3ccc(OCCN4CCCC4)cc3)nc12 :: 0.456 µM (active)
Cc1oncc1C(=O)Nc1ccc(C(F)(F)F)cc1 :: 16.6 µM (active)
COc1cc(C)c(Sc2cnc(NC(=O)c3ccc(CNC(C)C(C)(C)C)cc3)s2)cc1C(=O)N1CCN(C(C)=O)CC1 (centres undefined) :: 16.6 µM (active)
C[C@@H]1CCN(C(=O)N2CCCC2)C[C@@H]1N(C)c1ncnc2[nH]ccc12 :: 16.6 µM (active)
COc1cc2ncnc(Oc3cccc(NC(=O)Nc4cc(C(C)(C)C(F)(F)F)on4)c3)c2cc1OC :: 0.209 µM (active)

// below: Potency requested for another compound
Value of Potency reported for the compound OCCN1C[C@H](O)[C@@H](O)[C@H](O)[C@H]1CO is inactive
